Reported inhibition values follow for various compounds
biological target: Pantothenate synthetase (Mycobacterium tuberculosis (strain ATCC 25618 / H37Rv)) (UniProt P9WIL5); assay: Coupled enzyme confirmation of inhibitors against recombinant Mtb PanC (AID 375); conditions: coupled enzyme assay; at 10 µM, hits give high values;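 further: 0% = full reaction with vehicle and 100% = no enzyme background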
Sequence (P9WIL5 whole entry, looked up): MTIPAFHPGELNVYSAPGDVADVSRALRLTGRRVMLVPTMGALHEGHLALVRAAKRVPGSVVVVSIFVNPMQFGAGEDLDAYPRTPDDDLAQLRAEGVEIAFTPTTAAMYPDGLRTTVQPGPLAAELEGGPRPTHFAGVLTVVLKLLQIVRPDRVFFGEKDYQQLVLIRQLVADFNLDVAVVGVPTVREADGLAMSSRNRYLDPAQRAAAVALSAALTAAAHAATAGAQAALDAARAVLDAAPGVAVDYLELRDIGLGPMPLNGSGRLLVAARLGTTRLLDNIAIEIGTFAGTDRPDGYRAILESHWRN
quantity_measured: inhibition (%)

                                    compound  result
 0  CN(CC(=O)Nc1ccccc1Cl)C(=O)COC(=O)CNC(=O)c1ccc(Br)o1       0
 1  COc1ccc(OC)c(NC(=O)CCN2CCN(c3ccccc3F)CC2)c1       4
 2                 O=c1oc2ccccc2n1CCc1ccccc1       4
 3              Cc1cn2c(-c3ccc(Cl)cc3)nnc2s1       0
 4  O=C(NCC1CCCO1)C1CC(c2ccc(Cl)c(Cl)c2)=NO1 (configuration not stated)       0
 5          O=C1CN(Cc2ccccc2)C(=NCc2ccco2)S1       0
 6  CC(C)(C)n1ncc2c(=O)n(CC(=O)NCCc3ccccc3)cnc21       4
 7  CC1CN(CC(O)COc2ccccc2C(C)(C)C)CC(C)O1 (configuration not stated)       0
 8  Cn1c(=O)c2c3c(sc2n2c(SCc4ccccc4)nnc12)CCCC3       0
 9  COCCN1CN(S(=O)(=O)c2ccccc2)c2nc3ccccc3nc21       0
10           O=C(Nc1cccc(C(F)(F)F)c1)c1ccco1       0
11  COc1ccc(CCn2c(-c3ccco3)nc3nc4ccccc4nc32)cc1       0

* * *

assay: viability of PTEN-null HCT116 cells – cell-based, HCT116 clonal line, CellTiter-Glo, pilot screen (AID 824); conditions: HCT116 PTEN-deleted viability, 60 h, at 10 µM, hits give low values;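 further: 0% = 20 µM Hyamine control and 100% = vehicle cell control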
Results filed as inconclusive are left out.
quantity_measured: viability (%)

                                    compound  unit_label  result
 0  CCOC(=O)C1SC2(C(F)(F)C(F)F)CC1(O)c1c(c(OC)c3occc3c1OC)O2 (stereo unspecified)           %    86.9
 1  O=C(c1cccs1)C1CN2CCC1CC2 (stereo unspecified)           %     103
 2  OC12CCCCC1C(c1ccccc1)NCC2 (stereo unspecified)           %     102
 3                      CCCCP(=O)(O)c1ccccc1           %    95.4
 4  Cc1ccc(-n2nc(C)c3c2NC(=O)CSC3c2ccc3c(c2)OCO3)cc1 (stereo unspecified)           %    96.3
 5   CCCCNC(=O)c1c(N)n(CCCOC)c2nc3ccccc3nc12           %    67.8
 6  CCOc1ccc(-n2c(O)c(C=Nc3ccc(N4CCOCC4)cc3)c(=O)[nH]c2=O)cc1           %     103
 7    CN1CCN(c2nc3ccccc3c(=O)n2-c2ccccc2)CC1           %    99.3
 8       C=Cn1ccnc1P(=S)(c1nccn1C=C)C1CCCCC1           %    93.1
 9   CN1C(=O)C(Cc2cccc3ccccc23)C(=O)N(C)C1=O           %    89.7
10  CCCCn1c(C)c(C(=O)OCC)c2c(CN3CCOCC3)c(O)ccc21           %    72.6
